details: in isopropanol, 303.15 K
MEASURED_ENDPOINT: solubility (mole fraction)
Give only the figure.

In plain terms, COc1cc(C2Oc3cc(C4Oc5cc(O)cc(O)c5C(=O)C4O)ccc3OC2CO)ccc1O (stereo unspecified) has a documented solubility (mole fraction) of 0.00477

----------
conditions: in isopropanol, 333.15 K
MEASURED_ENDPOINT: solubility (mole fraction)
Output: the number by itself.

Record summary for COc1cc(C2Oc3cc(C4Oc5cc(O)cc(O)c5C(=O)C4O)ccc3OC2CO)ccc1O (stereo unspecified) : reported solubility (mole fraction) = 0.00662

----------
settings: in ethanol, 323.15 K
MEASURED_ENDPOINT: solubility (mole fraction)

Quick note, solubility (mole fraction) for COc1cc(C2Oc3cc(C4Oc5cc(O)cc(O)c5C(=O)C4O)ccc3OC2CO)ccc1O (stereo unspecified) landed at 0.0208

----------
conditions: in water, 298.15 K
MEASURED_ENDPOINT: solubility (mole fraction)
Give the value as a plain number.

Reported solubility (mole fraction) of COc1cc(C2Oc3cc(C4Oc5cc(O)cc(O)c5C(=O)C4O)ccc3OC2CO)ccc1O (stereo unspecified) : 1.46e-05

----------
details: in PEG-400, 313.15 K
MEASURED_ENDPOINT: solubility (mole fraction)
Answer with the value's number alone.

Lookup result for COc1cc(C2Oc3cc(C4Oc5cc(O)cc(O)c5C(=O)C4O)ccc3OC2CO)ccc1O (stereo unspecified) ; measured solubility (mole fraction): 0.29

----------
conditions: in ethanol, 303.15 K
MEASURED_ENDPOINT: solubility (mole fraction)

// COc1cc(C2Oc3cc(C4Oc5cc(O)cc(O)c5C(=O)C4O)ccc3OC2CO)ccc1O (stereo unspecified) : solubility (mole fraction) value = 0.0174

----------
settings: in ethanol, 313.15 K
MEASURED_ENDPOINT: solubility (mole fraction)
No unit in the answer, only the number.

Measured solubility (mole fraction), COc1cc(C2Oc3cc(C4Oc5cc(O)cc(O)c5C(=O)C4O)ccc3OC2CO)ccc1O (stereo unspecified) : 0.0193

----------
details: in PEG-400, 323.15 K
MEASURED_ENDPOINT: solubility (mole fraction)
Enter a number only.

Form: molecule = COc1cc(C2Oc3cc(C4Oc5cc(O)cc(O)c5C(=O)C4O)ccc3OC2CO)ccc1O (stereo unspecified) ; solubility (mole fraction) = 0.34

----------
details: in ethanol, 298.15 K
MEASURED_ENDPOINT: solubility (mole fraction)

Value of measured solubility (mole fraction) for the entry COc1cc(C2Oc3cc(C4Oc5cc(O)cc(O)c5C(=O)C4O)ccc3OC2CO)ccc1O (stereo unspecified) : 0.0167

----------
settings: in isopropanol, 298.15 K
MEASURED_ENDPOINT: solubility (mole fraction)
Answer as a number with no unit attached.

solubility (mole fraction) in this record for COc1cc(C2Oc3cc(C4Oc5cc(O)cc(O)c5C(=O)C4O)ccc3OC2CO)ccc1O (stereo unspecified) : 0.00448

----------
settings: in PEG-400, 303.15 K
MEASURED_ENDPOINT: solubility (mole fraction)
Just the number, please.

get_value(item= COc1cc(C2Oc3cc(C4Oc5cc(O)cc(O)c5C(=O)C4O)ccc3OC2CO)ccc1O (stereo unspecified) , readout=solubility (mole fraction)) returns 0.26

----------
details: in water, 303.15 K
MEASURED_ENDPOINT: solubility (mole fraction)
Lab note: record the figure alone, no unit after it.

In plain terms, COc1cc(C2Oc3cc(C4Oc5cc(O)cc(O)c5C(=O)C4O)ccc3OC2CO)ccc1O (stereo unspecified) has a documented solubility (mole fraction) of 1.68e-05
